Catalogue of pKd readings, one per entry.
Assay Target: Recombinant human his-tagged IGF 1R extracellular domain protein (human) (UniProt P08069)
Experiment Summary: SPR, captured antibody, pH 7.4
To interpret pKd, take it as minus log10 of a concentration measured in moles per litre.

>>> recorded_value("VRDN-03135 (antibody, V domains shown) VH: EVQLVESGGGVVQPGRSLRLSCAASGFTFDDYAMHWVRQAPGKGLEWVAIIWFDGSSKYYADSVKGRFTISRDNSKNTLYLQMNSLRAEDTAVYYCARELGRRYFDIWGQGTLVTVSS VL: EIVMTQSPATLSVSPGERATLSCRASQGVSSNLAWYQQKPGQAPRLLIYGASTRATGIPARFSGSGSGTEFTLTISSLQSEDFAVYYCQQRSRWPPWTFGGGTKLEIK")
8.39

Request: Indicate its recorded pKd; the binder in question is VRDN-03106 (antibody, V domains shown) VH: QVQLVESGGGVVQPGRSLRLSCAASGFTFSDHYMDWVRQAPGKGLEWVAIIWFDGSSKYYPGSVKGRFTISRDNSKNTLYLQMNSLRAEDTAVYYCARELGRRYFDIWGRGTLVTVSS VL: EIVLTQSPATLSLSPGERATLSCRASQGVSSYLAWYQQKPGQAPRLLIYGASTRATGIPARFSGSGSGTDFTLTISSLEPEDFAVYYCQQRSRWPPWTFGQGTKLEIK
Response: 7.79
